Assay: Mouse pharmacokinetic study of oral GE with and without ketoconazole, plasma with and without β-glucuronidase treatment
Assay type: in vivo, male mice (C57BL6J)
Conditions: male, C57BL6J; mouse plasma; 250 mg/kg GE with 50 mg/kg ketoconazole oral; 3 h; −βgd
REPORTED_PROPERTY: concentration at 3 h (ng/mL)

Recorded results for 2 molecules are shown here.
• CCCCC[C@H](O)CC(=O)CCc1ccc(O)c(OC)c1 [6G, 6-gingerol] = 65.2
• CCCCC/C=C/C(=O)CCc1ccc(O)c(OC)c1 [6S, 6-shogaol] = 2.33

P = CCCCCCCC(O)CC(=O)CCc1ccc(O)c(OC)c1 (stereo not shown) [8G, 8-gingerol]
Q = CCCCCCCCCC(O)CC(=O)CCc1ccc(O)c(OC)c1 (stereo not shown) [10G, 10-gingerol]
Which one would you say has the larger concentration at 3 h value: P , or Q ? // output: label of the selected item Q
